assay: Test F: stability in human plasma; assay type: in vitro ADME; details: 37 C
Measured metric: half-life

>>> result("O=c1[nH]c(=O)n([C@H]2C[C@H](O)[C@@H](CO)O2)cc1F [FUdR, 5-fluorodeoxyuridine, reference compound]")
"5 to 10 min"

---

system: CEM T-cell leukemia cells; experiment: Test G: activity against CEM T-cell leukemia cells; format: cell-based
Measured metric: CC50 (nM)

>>> measured_number("COC(=O)[C@H](Cc1c[nH]c2ccccc12)NP(=O)(O)OC[C@H]1O[C@@H](n2cc(F)c(=O)[nH]c2=O)C[C@@H]1O")
320

---

test system: MCF-7 breast cancer cells; assay: Test G: activity against MCF-7 breast cancer cells; format: cell-based
Measured metric: CC50 (nM)

>>> measured_number("COC(=O)[C@H](Cc1c[nH]c2ccccc12)NP(=O)(O)OC[C@H]1O[C@@H](n2cc(F)c(=O)[nH]c2=O)C[C@@H]1O")
25

---

assay: in vitro; conditions: cell media
Measured metric: half-life

>>> result("O=c1[nH]c(=O)n([C@H]2C[C@H](O)[C@@H](CO)O2)cc1F [FUdR, 5-fluorodeoxyuridine, reference compound]")
"> 48 h"
